# System: MKN-45
# assay details: Cytotoxicity against human MKN45 cells after 72 hrs by MTT assay
# details: MKN-45, 72 h
Quick reference: pIC50 of the listed items.
Scale: negative log10 of molar concentration, which is what pIC50 denotes.

>  <compound>
COc1cc2c(Oc3ccc(NC(=O)c4cc(-c5cccc(Cl)c5)nc5ccc(F)cc45)cc3F)ccnc2cc1OCCCN1CCC(C)CC1

>  <pIC50>
8.00

$$$$
>  <compound>
COc1cc2c(Oc3ccc(NC(=O)c4cc(-c5ccccc5)nc5ccc(F)cc45)cc3F)ccnc2cc1OCCCN1CCCC1

>  <pIC50>
6.96

$$$$
>  <compound>
COc1cc2c(Oc3ccc(NC(=O)c4cc(-c5cccc(Cl)c5)nc5ccccc45)cc3F)ccnc2cc1OCCCN1CCCCC1

>  <pIC50>
7.96

$$$$

Below: the item to evaluate.
Enquiry: Find pIC50 (MKN-45) for the entry COc1cccc(-c2cc(C(=O)Nc3ccc(Oc4ccnc5cc(OCCCN6CCCCC6)c(OC)cc45)c(F)c3)c3ccccc3n2)c1
Return: 6.44

----------
Quick reference: IC50 of the listed items.
# System: MKN-45
# assay details: Cytotoxicity against human MKN45 cells after 72 hrs by MTT assay
# details: MKN-45, 72 h
Answer with a number only, understood to be in µM.

>  <compound>
COc1cc2c(Oc3ccc(NC(=O)c4cc(-c5ccc(C(F)(F)F)cc5)nc5ccccc45)cc3F)ccnc2cc1OCCCN1CCOCC1

>  <study target>
MKN-45

>  <IC50 [µM]>
0.012

$$$$

Enquiry: Given COc1cc2c(Oc3ccc(NC(=O)c4cc(-c5ccc(C)cc5)nc5ccc(F)cc45)cc3F)ccnc2cc1OCCCN1CCCCC1 , state its recorded IC50.
Return: 0.17

Enquiry: What about this molecule? COc1cc2c(Oc3ccc(NC(=O)c4cc(-c5ccc(C)cc5)nc5ccc(F)cc45)cc3F)ccnc2cc1OCCCN1CCC(C)CC1
Return: 0.26

Enquiry: What about this molecule? COc1cc2c(Oc3ccc(NC(=O)c4cc(-c5ccc(C)cc5)nc5ccccc45)cc3F)ccnc2cc1OCCCN1CCCC1
Return: 0.3

Enquiry: What about this molecule? COc1cc2c(Oc3ccc(NC(=O)c4cc(-c5cccc(Cl)c5)nc5ccccc45)cc3F)ccnc2cc1OCCCN1CCC(C)CC1
Return: 0.03

Enquiry: What about this molecule? COc1ccc(-c2cc(C(=O)Nc3ccc(Oc4ccnc5cc(OCCCN6CCCC6)c(OC)cc45)c(F)c3)c3cc(F)ccc3n2)cc1
Return: 0.17

Enquiry: What about this molecule? COc1cccc(-c2cc(C(=O)Nc3ccc(Oc4ccnc5cc(OCCCN6CCC(C)CC6)c(OC)cc45)c(F)c3)c3cc(F)ccc3n2)c1
Return: 0.73

Enquiry: What about this molecule? COc1ccc(-c2cc(C(=O)Nc3ccc(Oc4ccnc5cc(OCCCN6CCOCC6)c(OC)cc45)c(F)c3)c3ccccc3n2)cc1
Return: 0.16

Enquiry: What about this molecule? COc1ccc(-c2cc(C(=O)Nc3ccc(Oc4ccnc5cc(OCCCN6CCCCC6)c(OC)cc45)c(F)c3)c3cc(F)ccc3n2)cc1
Return: 0.26

Enquiry: What about this molecule? COc1cc2c(Oc3ccc(NC(=O)c4cc(-c5ccc(C)cc5)nc5ccccc45)cc3F)ccnc2cc1OCCCN1CCOCC1
Return: 0.83

Enquiry: What about this molecule? COc1cc2c(Oc3ccc(NC(=O)c4cc(-c5ccc(Cl)cc5Cl)nc5ccc(F)cc45)cc3F)ccnc2cc1OCCCN1CCCCC1
Return: 0.25
